- System: Mus musculus
- Protocol: Protection against PTZ-induced convulsions in ip dosed mouse after 0.5 hrs by scPTZ assay
- Format: functional
Labelling field: enter condition met if recorded ED50 is less than 50 mg/kg. Enter condition not met if it equals or exceeds that cut-off.

- CN1C(=O)N(c2ccccc2)C(=O)C12OC(=O)c1ccccc12 (stereo not given): condition not met
- CCN1C(=O)N(c2ccccc2)C(=O)C12OC(=O)c1ccccc12 (stereo not given): condition not met
- CCCN1C(=O)N(CCC)C2(OC(=O)c3ccccc32)C1=O (stereo not given): condition not met
- CCN1C(=O)N(c2ccc(F)cc2)C(=O)C12OC(=O)c1ccccc12 (stereo not given): condition not met
- CCN1C(=O)N(c2ccc([N+](=O)[O-])cc2)C(=O)C12OC(=O)c1ccccc12 (stereo not given): condition met
- CCCCN1C(=O)N(CCCC)C2(OC(=O)c3ccccc32)C1=O (stereo not given): condition not met
- CCC1(c2ccccc2)C(=O)NC(=O)NC1=O [PHENOBARBITAL]: condition met
- CCN1C(=O)N(c2ccc(OC)cc2)C(=O)C12OC(=O)c1ccccc12 (stereo not given): condition not met

-- ask Lab note: ED50 threshold 50 mg/kg. Does this compound come in strictly under it? CN1C(=O)N(c2ccc(C(F)(F)F)cc2)C(=O)C12OC(=O)c1ccccc12 (stereo not given)
-- reply condition not met

-- ask Lab note: ED50 threshold 50 mg/kg. Does this compound come in strictly under it? CN1C(=O)N(c2ccc(F)cc2)C(=O)C12OC(=O)c1ccccc12 (stereo not given)
-- reply condition not met
